- target_under_test: T1, human IL-13 R130Q variant (R110Q of the mature chain) (human, UniProt P35225 35-146, Biotinylated on amines (NHS-LC-biotin, 4:1) in ELISA, panning and competition assays. The letters are unchanged.)
- T1 construct: R130Q counts from Met 1 of the signal peptide, R110Q on the mature chain; Bought from Peprotech; also called IL-13 R110Q; b-R130Q
- protocol_description: Ra2 binding inhibition ELISA, mAb in crude HEK293 supernatant, IL-13 binding to IL-13Ra2
I would appreciate it if you labelled entries yes (1) when % Ra2 Binding Inhibition is 80% or higher, otherwise no (0).

- binder: "mAb with Lc 2A03 (Lc6 variant) and Hc2 (antibody, V domains shown, human IgG1) VH: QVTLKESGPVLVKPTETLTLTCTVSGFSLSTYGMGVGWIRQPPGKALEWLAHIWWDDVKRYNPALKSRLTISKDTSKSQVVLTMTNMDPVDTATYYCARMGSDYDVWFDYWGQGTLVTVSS VL: EIVLTQSPATLSLSPGERATLSCRASKSISKYLAWYQQKPGQAPRLLIYSGSTLQSGIPARFSGSGSGTDFTLTISSLEPEDFAVYYCQQHESGPYTFGQGTKLEIK"
  category_label: "no (0)"
- binder: "mAb with Lc 2C05 (Lc6 variant) and Hc2 (antibody, V domains shown, human IgG1) VH: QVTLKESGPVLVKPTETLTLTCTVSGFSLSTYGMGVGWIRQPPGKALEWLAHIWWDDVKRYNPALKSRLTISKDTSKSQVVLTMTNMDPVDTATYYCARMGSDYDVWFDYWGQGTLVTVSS VL: EIVLTQSPATLSLSPGERATLSCRASKSISKYLAWYQQKPGQAPRLLIYSGSTLQSGIPARFSGSGSGTDFTLTISSLEPEDFAVYYCQQQDLGPYTFGQGTKLEIK"
  category_label: "yes (1)"
- binder: "mAb with Lc 3G01 (Lc6 variant) and Hc2 (antibody, V domains shown, human IgG1) VH: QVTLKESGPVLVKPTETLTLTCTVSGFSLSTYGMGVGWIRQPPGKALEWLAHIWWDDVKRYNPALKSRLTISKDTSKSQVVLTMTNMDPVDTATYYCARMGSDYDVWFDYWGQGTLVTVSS VL: EIVLTQSPATLSLSPGERATLSCRASKSISKYLAWYQQKPGQAPRLLIYSGSTLQSGIPARFSGSGSGTDFTLTISSLEPEDFAVYYCQQPLDVPYTFGQGTKLEIK"
  category_label: "no (0)"
- binder: "mAb with Lc 3B06 (Lc6 variant) and Hc2 (antibody, V domains shown, human IgG1) VH: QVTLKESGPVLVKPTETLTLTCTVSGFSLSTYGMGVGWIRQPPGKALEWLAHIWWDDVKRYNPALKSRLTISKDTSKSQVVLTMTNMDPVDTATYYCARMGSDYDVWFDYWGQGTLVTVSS VL: EIVLTQSPATLSLSPGERATLSCRASKSISKYLAWYQQKPGQAPRLLIYSGSTLQSGIPARFSGSGSGTDFTLTISSLEPEDFAVYYCQQHLMGPYTFGQGTKLEIK"
  category_label: "no (0)"
- binder: "mAb with Lc 1A05 (Lc6 variant) and Hc2 (antibody, V domains shown, human IgG1; del = residue deleted) VH: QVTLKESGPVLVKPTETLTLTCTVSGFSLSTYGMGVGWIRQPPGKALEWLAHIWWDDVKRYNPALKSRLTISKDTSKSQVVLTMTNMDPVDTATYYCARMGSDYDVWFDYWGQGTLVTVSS VL: EIVLTQSPATLSLSPGERATLSCRASKSISKYLAWYQQKPGQAPRLLIYSGSTLQSGIPARFSGSGSGTDFTLTISSLEPEDFAVYYCQQQDGPYTFGQGTKLEIK"
  category_label: "yes (1)"
